sequences and their reported apparent KD of MS2 coat protein
System: MS2 coat protein
Assay explanation: apparent KD of MS2 coat protein; designed switch direction (-1 OFF switch, 1 ON switch): -1; higher = weaker reporter binding
Condition notes: input ligand: none
Metric: apparent KD of MS2 coat protein (nM)

# Primary sequence, System, Metric, Experimental value
data = [
    ("GGCUUGCUAGUAGGAUAUCGCUUGUACAUGAGGAUCACCCAUGUGUGAUAUGCCUACAUAGUGCGUGAGAAGGACUGCAAGCCG [Diatdiinin] (Eterna round: R96, puzzle: Exclusion NG 2)", "MS2 coat protein", "apparent KD of MS2 coat protein", 14.1),
    ("GCCUACGCAGGAUAUGUCCAGGGAAACAUGAGGAUCACCCAUGUGGAGUGGACUCGGGUUGCAGAAGGGCGGGCAC [Eternabot (Original) Solution 3] (Eterna round: R97, puzzle: Exclusion 5)", "MS2 coat protein", "apparent KD of MS2 coat protein", 16),
    ("UUUUUCUCAGGAUAUACAUGAGGAUCACCCAUGUAUAUUAAUGAUAAUACAUGGGAAUGUAGAAGGGAGCUCAU [Omei Ex3 Pseudoloop 13] (Eterna round: R97, puzzle: Exclusion 3)", "MS2 coat protein", "apparent KD of MS2 coat protein", 135),
    ("GCACGGAUGGUAGGAUAUCUGUGCGAUUAGCUCAGAGAAGGACCACAUGAGGAUCACCCAUGUACCUCAAUUAGCCUUCCGUGC [Eli exng1 - 019] (Eterna round: R96, puzzle: Exclusion NG 1)", "MS2 coat protein", "apparent KD of MS2 coat protein", 15.2),
    ("UUUUGCACGCUGCGGUCCUACAUGAGGAUCACCCAUGUGGUCUGGUGGCGUGGGUCGCCGGACUUGGCUCGUCUUGG [salish99_S_TOV1_R5_035] (Eterna round: R97, puzzle: Sensor, turn-off variant 1)", "MS2 coat protein", "apparent KD of MS2 coat protein", 14.9),
    ("CCCACAAGCUUUUUGCUCGACAUGAGGAUCACCCAUGUUGAAUGGGUUAGAUGUGUGUGAAACACACACAUCUACCU [-32.5, -55.3 kcal, A 27%] (Eterna round: R97, puzzle: Sensor, turn-off variant 1)", "MS2 coat protein", "apparent KD of MS2 coat protein", 18.6),
    ("UUAAUGGUUGUGAGGAUAUCGGAUAGAUAGAUAUUCGAGAAGGCACAUGAGGAUCACCCAUGUGUGAUCAGAAA [Brourd's EX4 #61] (Eterna round: R97, puzzle: Brourd's mod of Exclusion 4)", "MS2 coat protein", "apparent KD of MS2 coat protein", 202),
    ("GGGCUGUCAGGAUAUGUGUGUGUGUGUGAAAGCGCGCGCGCGCAGAAGGGACAUGAGGAUCACCCAUGUGGCCC [-35.3, -34.3 kcal, A 20%, 6bis-0] (Eterna round: R97, puzzle: Exclusion 4)", "MS2 coat protein", "apparent KD of MS2 coat protein", 33),
    ("UCAACGCAAGGAUAUACUUGCGGUGAUGUUCGAAUUCUUCUACUUGAGGAUCACCCAAGUAGAAGGUGCGAUGA [jl-ex2.4.62 ViennaUCT mod] (Eterna round: R97, puzzle: Exclusion 2)", "MS2 coat protein", "apparent KD of MS2 coat protein", 13.4),
]
